biological target: ATP-dependent translocase ABCB1 (Homo sapiens); experiment: TP_TRANSPORTER: inhibition of Rhodamine 123 transport in 3T3-G185 cells; format: functional, cell-based
Sequence (P08183 whole entry): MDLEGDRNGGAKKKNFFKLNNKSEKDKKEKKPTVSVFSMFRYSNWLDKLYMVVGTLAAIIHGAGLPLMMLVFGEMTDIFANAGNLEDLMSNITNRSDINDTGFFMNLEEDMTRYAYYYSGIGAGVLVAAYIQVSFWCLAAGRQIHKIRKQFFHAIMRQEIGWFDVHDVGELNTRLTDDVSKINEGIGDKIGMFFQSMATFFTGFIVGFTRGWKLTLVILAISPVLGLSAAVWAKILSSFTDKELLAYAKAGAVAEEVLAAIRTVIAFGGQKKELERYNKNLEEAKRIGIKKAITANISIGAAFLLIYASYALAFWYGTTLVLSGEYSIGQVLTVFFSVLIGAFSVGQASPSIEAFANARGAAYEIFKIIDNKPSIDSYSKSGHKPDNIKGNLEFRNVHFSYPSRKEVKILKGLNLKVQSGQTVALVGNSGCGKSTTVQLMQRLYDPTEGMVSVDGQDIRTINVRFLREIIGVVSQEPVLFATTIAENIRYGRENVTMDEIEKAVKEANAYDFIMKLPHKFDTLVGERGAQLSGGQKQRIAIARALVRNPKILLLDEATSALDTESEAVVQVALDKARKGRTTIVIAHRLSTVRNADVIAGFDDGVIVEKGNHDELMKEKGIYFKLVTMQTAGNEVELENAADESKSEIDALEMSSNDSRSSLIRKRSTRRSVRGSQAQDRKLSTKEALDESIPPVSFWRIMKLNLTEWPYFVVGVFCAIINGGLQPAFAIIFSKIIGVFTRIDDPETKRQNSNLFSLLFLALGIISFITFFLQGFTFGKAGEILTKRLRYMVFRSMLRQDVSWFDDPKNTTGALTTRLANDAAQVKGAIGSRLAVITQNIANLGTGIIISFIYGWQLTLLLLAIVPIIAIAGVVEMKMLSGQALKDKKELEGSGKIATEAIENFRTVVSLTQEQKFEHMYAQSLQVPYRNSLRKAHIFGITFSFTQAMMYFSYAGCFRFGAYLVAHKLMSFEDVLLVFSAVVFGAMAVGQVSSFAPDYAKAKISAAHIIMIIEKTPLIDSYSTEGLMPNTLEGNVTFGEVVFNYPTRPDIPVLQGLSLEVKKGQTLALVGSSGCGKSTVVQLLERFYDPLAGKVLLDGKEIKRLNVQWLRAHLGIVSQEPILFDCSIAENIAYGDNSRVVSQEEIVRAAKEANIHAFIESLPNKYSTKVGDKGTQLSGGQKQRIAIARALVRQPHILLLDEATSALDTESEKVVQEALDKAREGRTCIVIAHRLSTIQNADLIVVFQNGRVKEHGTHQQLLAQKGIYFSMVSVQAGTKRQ
experimental_readout: IC50 (µM)
Numbers only, in µM.

-- ask Quick one: IC50 of CC(C)c1c(C(=O)Nc2ccccc2)c(-c2ccccc2)c(-c2ccc(F)cc2)n1CC[C@@H](O)C[C@@H](O)CC(=O)O [ATORVASTATIN] ?
-- reply 307

====

molecular target: ATP-dependent translocase ABCB1 (Homo sapiens); experiment: TP_TRANSPORTER: inhibition of Daunorubicin transport in 3T3-G185 cells; format: functional, cell-based
experimental_readout: IC50 (µM)
Numbers only, in µM.

-- ask Quick one: IC50 of "CC(C)c1c(C(=O)Nc2ccccc2)c(-c2ccccc2)c(-c2ccc(F)cc2)n1CC[C@@H](O)C[C@@H](O)CC(=O)O" ?
-- reply 271
